- tgt: human B2 bradykinin receptors (Homo sapiens)
- Construct: purchased Receptor Biology, Inc. (Baltimore, MD); host or cells: CHO-K1 cells transfected with the human B2 receptor (membranes)
- Sequence (P30411 whole entry): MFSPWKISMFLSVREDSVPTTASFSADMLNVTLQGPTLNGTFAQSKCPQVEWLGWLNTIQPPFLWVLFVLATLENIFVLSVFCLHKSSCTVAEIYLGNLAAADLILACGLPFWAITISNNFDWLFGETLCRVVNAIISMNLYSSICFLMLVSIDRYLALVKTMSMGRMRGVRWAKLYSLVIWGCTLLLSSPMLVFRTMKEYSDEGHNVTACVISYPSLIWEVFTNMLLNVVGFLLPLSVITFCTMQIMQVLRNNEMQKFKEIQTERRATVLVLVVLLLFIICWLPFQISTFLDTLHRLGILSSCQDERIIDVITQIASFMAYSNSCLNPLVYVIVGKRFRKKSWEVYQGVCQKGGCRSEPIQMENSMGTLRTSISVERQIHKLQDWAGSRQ
- assay.text: Bradykinin B2 (BK2) Receptor Binding Assay
endpoint: Ki (nM)
Provide the reading as a plain figure in nM.

// query Given the entry Cc1ccc2cccc(OCc3c(Cl)ccc(N(C)C(=O)CCc4ccc(C(=O)c5ccc(C#N)cc5)n4C)c3Cl)c2n1 , report its measured Ki.
// result 15

----------
- tgt: CHO-hB2 cell membranes (Homo sapiens, UniProt P30411)
- Construct: purchased Receptor Biology, Inc. (Baltimore, MD); host or cells: CHO-hB2 cells (membranes)
- Sequence (P30411 whole entry): as above
- assay.text: [35S]GTPγS Binding Assay in CHO-hB2 Cell Membranes
- Format: biochemical
- measurement.parameters: word part of the cell; effect on bradykinin-stimulated [35S]GTPγS binding
endpoint: Functional Activity

# example entries with known answers
>>> reported_measurement("Cc1ccc2cccc(OCc3c(C)ccc(N(C)C(=O)CCc4ccc(C(=O)c5ccc(Cl)nc5)n4C)c3C)c2n1 [Compound 88]")
"Antagonist"
>>> reported_measurement("Cc1ccc2cccc(OCc3c(Cl)ccc(N(C)C(=O)Cc4ccc(C(=O)c5ccc(Cl)nc5)n4C)c3Cl)c2n1 [Compound 67]")
"Antagonist"
>>> reported_measurement("Cc1ccc2cccc(OCc3c(Cl)ccc(N(C)C(=O)Cc4ccc(C(=O)CN5CCC(c6ccccc6)CC5)n4C)c3Cl)c2n1 [Compound 58]")
"No effect"
>>> reported_measurement("Cc1ccc2cccc(OCc3c(Cl)ccc(N(C)C(=O)Cc4ccc(C(=O)c5ccc(C#N)cc5)n4CC(C)C)c3Cl)c2n1 [Compound 12]")
"No effect"
>>> reported_measurement("Cc1ccc2cccc(OCc3c(Cl)ccc(N(C)C(=O)Cc4ccc(C(=O)c5ccc([S+](C)[O-])cc5)n4C)c3Cl)c2n1 (stereo not shown) [Compound 73]")
"Antagonist"

Could you now consider this next molecule?
// query What is its Functional Activity for CHO-hB2 cell membranes (Homo sapiens, UniProt P30411)? Entry: Cc1ccc2cccc(OCc3c(Cl)ccc(N(C)C(=O)CCc4ccc(C(=O)c5cccs5)n4C)c3Cl)c2n1 [Compound 81]
// result No effect

----------
- tgt: CHO-hB2 cell membranes (Homo sapiens, UniProt P30411)
- Construct: purchased Receptor Biology, Inc. (Baltimore, MD); host or cells: CHO-hB2 cells (membranes)
- assay.text: [35S]GTPγS Binding Assay in CHO-hB2 Cell Membranes
- Format: biochemical
- measurement.parameters: word part of the cell; effect on bradykinin-stimulated [35S]GTPγS binding
endpoint: Functional Activity

>>> reported_measurement("CCN(C(=O)Cc1ccc(C(=O)c2ccc(C#N)cc2)n1C)c1ccc(C)c(COc2cccc3ccc(C)nc23)c1C")
"No effect"
>>> reported_measurement("Cc1ccc2cccc(OCc3c(Cl)ccc(N(C)C(=O)Cc4ccc(C(=O)c5ccc(C#N)cc5)n4CC4CC4)c3Cl)c2n1")
"No effect"
>>> reported_measurement("CC(=O)Nc1ccc(C=CC(=O)NC[C@H]2CCCN2c2ccc(C)c(COc3cccc4ccc(C)nc34)c2C)cn1")
"Antagonist"
>>> reported_measurement("Cc1ccc2cccc(OCc3c(C)ccc(N(C)C(=O)CCc4ccc(C(=O)c5ccc(C#N)cc5)n4C)c3C)c2n1")
"Antagonist"
>>> reported_measurement("Cc1ccc2cccc(OCc3c(C)ccc(N(C)C(=O)Cc4ccc(C(=O)c5ccc(C#N)nc5)n4C)c3C)c2n1")
"Antagonist"

// query What is its Functional Activity for CHO-hB2 cell membranes (Homo sapiens, UniProt P30411)? Entry: COC(=O)c1ccc(C(=O)c2ccc(CC(=O)N(C)c3ccc(Cl)c(COc4cccc5ccc(C)nc45)c3Cl)n2C)cc1
// result Antagonist

Value source: patent EP1914236A1
